biological target: type II dehydroquinase from Streptomyces coelicolor (Streptomyces coelicolor, UniProt P15474); assay: Inhibition of type II dehydroquinase from Streptomyces coelicolor (Ki); type: biochemical; details: Inhibition constants Ki, S. coelicolor, pH = 7.0, 25° C., 50 mM Tris•HCl
Sequence (P15474 whole entry): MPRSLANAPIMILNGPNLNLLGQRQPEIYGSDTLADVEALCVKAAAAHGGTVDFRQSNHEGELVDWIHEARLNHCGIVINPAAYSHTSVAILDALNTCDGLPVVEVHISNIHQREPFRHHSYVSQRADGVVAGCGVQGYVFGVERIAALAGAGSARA
RECORDED METRIC: Ki

compound="Cc1ccc(CC2C(=O)C(O)C(O)CC2(O)C(=O)O)cc1 (single isomer, unassigned) [(2S)-Ia-4]" recorded_metric=Ki reading="150 nM"
compound="Cc1ccc(CC2C(=O)C(O)C(O)CC2(O)C(=O)O)cc1 (single isomer, unassigned) [(2R)-Ia-4]" recorded_metric=Ki reading="22 nM"
compound="O=C(O)C1(O)CC(O)C(O)C(OCc2cc3ccccc3s2)=C1Cc1cc2ccccc2s1 (stereo not shown)" recorded_metric=Ki reading="2.8 nM"
compound="O=C1[C@@H](O)[C@H](O)C[C@](O)(C(=O)O)[C@@H]1Cc1ccccc1 [(2S)-Ia-3, (2S)-2-benzyl-3-dehydroquinic acid]" recorded_metric=Ki reading="1050 nM"

###

target: type II dehydroquinase from Helicobacter pylori (Helicobacter pylori); assay: Inhibition of type II dehydroquinase from Helicobacter pylori (Ki); assay type: biochemical; conditions: Inhibition constants Ki, H. pylori, pH = 7.0, 25° C., 50 mM Tris•HCl
Sequence (Q48255 whole entry): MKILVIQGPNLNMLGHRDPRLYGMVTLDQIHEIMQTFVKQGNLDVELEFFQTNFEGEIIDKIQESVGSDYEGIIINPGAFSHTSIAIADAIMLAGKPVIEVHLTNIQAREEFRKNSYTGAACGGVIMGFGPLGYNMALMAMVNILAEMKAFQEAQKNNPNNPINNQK
Recorded Ki for the following molecules
RECORDED METRIC: Ki

test_smiles=CCc1cc2c(s1)[C@@H](O)[C@H](O)C[C@]2(O)C(=O)O reading="3.4 µM"
test_smiles=O=C(O)[C@@]1(O)C[C@@H](O)[C@H](O)c2sc(/C=C/C3CC3)cc21 reading="1.08 µM"
test_smiles=C/C=C/c1cc2c(s1)[C@@H](O)[C@H](O)C[C@]2(O)C(=O)O reading="0.35 µM"
test_smiles=C=Cc1cc2c(s1)[C@@H](O)[C@H](O)C[C@]2(O)C(=O)O reading="1.25 µM"
test_smiles=C=C(c1ccccc1)c1cc2c(s1)[C@@H](O)[C@H](O)C[C@]2(O)C(=O)O reading="20.5 µM"
test_smiles=O=C(O)[C@@]1(O)C[C@@H](O)[C@H](O)c2sc(-c3ccccc3)cc21 reading="> 150 µM"
test_smiles=C=C(C)c1cc2c(s1)[C@@H](O)[C@H](O)C[C@]2(O)C(=O)O reading="38 µM"
test_smiles=CCCc1cc2c(s1)[C@@H](O)[C@H](O)C[C@]2(O)C(=O)O reading="0.12 µM"
test_smiles=O=C(O)[C@@]1(O)C[C@@H](O)[C@H](O)c2sc(/C=C/c3ccccc3)cc21 reading="16 µM"

###

Molecular target: type II dehydroquinase from Streptomyces coelicolor (Streptomyces coelicolor)
Test: Inhibition of type II dehydroquinase from Streptomyces coelicolor (Ki)
Assay type: biochemical
Conditions: Inhibition constants Ki, S. coelicolor, pH = 7.0, 25° C., 50 mM Tris•HCl
Method: Effect of compounds of formula I of the invention on the catalytic activity of the type II dehydroquinase from various sources. The inhibitory potency of compounds I of the invention against type II dehydroquinases from Mycobacterium tuberculoris, Streptomyces coelicolor and Helicobacter pylori were assayed as it is described in the following articles: 1) Sanchez-Sixto, C.; Prazeres, V. F. V.; Castedo, L.; Lamb, H.; Hawkins, A. R.; Gonzalez-Bello, C. […]
Each item that follows carries a reported Ki.
RECORDED METRIC: Ki (nM)

compound="C=CC[C@H]1C(=O)[C@@H](O)[C@H](O)C[C@]1(O)C(=O)O [(2R)-Ia-1, (2R)-2-allyl-3-dehydroquinic acid]" unit_name=nM reading=10200
compound="O=C(O)[C@@]1(O)C[C@@H](O)[C@H](O)C(OCc2cccs2)=C1Cc1cc2ccccc2s1 [Ib-12]" unit_name=nM reading=279
compound="O=C1C(O)C(O)CC(O)(C(=O)O)C1Cc1ccc2sccc2c1 (single isomer, unassigned) [(2R)-Ia-7]" unit_name=nM reading=4
compound="O=C(O)[C@]1(O)C=C(OCc2ccc3sccc3c2)[C@@H](O)[C@H](O)C1 [Ib-7]" unit_name=nM reading=0.3
compound="O=C1C(O)C(O)CC(O)(C(=O)O)C1Cc1c(F)c(F)c(F)c(F)c1F (single isomer, unassigned) [(2R)-Ia-6]" unit_name=nM reading=242
compound="CCCC1C(=O)C(O)C(O)CC1(O)C(=O)O [(2R)-Ia-2, (2R)-2-propyl-3-dehydroquinic acid]" unit_name=nM reading=76000
compound="O=C([O-])[C@@]1(O)C[C@@H](O)[C@H](O)C(OCc2ccc3sccc3c2)=C1Cc1cccs1.[Na+] [Ib-13]" unit_name=nM reading=280
compound="O=C1[C@@H](O)[C@H](O)C[C@](O)(C(=O)O)[C@H]1Cc1ccccc1 [(2R)-Ia-3, (2R)-2-benzyl-3-dehydroquinic acid]" unit_name=nM reading=1550
compound="COc1ccc(CC2C(=O)C(O)C(O)CC2(O)C(=O)O)cc1 (single isomer, unassigned) [(2S)-Ia-5]" unit_name=nM reading=340
compound="O=C1C(O)C(O)CC(O)(C(=O)O)C1Cc1ccc2sccc2c1 (single isomer, unassigned) [(2S)-Ia-7]" unit_name=nM reading=38
compound="COc1ccc(CC2C(=O)C(O)C(O)CC2(O)C(=O)O)cc1 (single isomer, unassigned) [(2R)-Ia-5]" unit_name=nM reading=34
compound="Cc1ccc2sc(COC3=C(Cc4cc5cc(C)ccc5s4)[C@@](O)(C(=O)O)C[C@@H](O)[C@@H]3O)cc2c1 [Ib-4]" unit_name=nM reading=13
compound="O=C1C(O)C(O)CC(O)(C(=O)O)C1Cc1c(F)c(F)c(F)c(F)c1F (single isomer, unassigned) [(2S)-Ia-6]" unit_name=nM reading=6.5
compound="C=CCC1=C(OCc2cc3ccccc3s2)[C@@H](O)[C@H](O)C[C@]1(O)C(=O)O [Ib-5]" unit_name=nM reading=15
compound="C=CC[C@@H]1C(=O)[C@@H](O)[C@H](O)C[C@]1(O)C(=O)O [(2S)-Ia-1, (2S)-2-allyl-3-dehydroquinic acid]" unit_name=nM reading=6700
compound="Cc1ccc2sc(COC3=C[C@@](O)(C(=O)O)C[C@@H](O)[C@@H]3O)cc2c1 [Ib-3]" unit_name=nM reading=2.4

###

RECORDED METRIC: melting point

molecule="COc1ccc(CC2C(=O)C(O)C(O)CC2(O)C(=O)O)cc1 (single isomer, unassigned)" recorded_metric="melting point" reading="138 to 143 °C"
molecule=CCc1cc2c(s1)[C@@H](O)[C@H](O)C[C@]2(O)C(=O)O recorded_metric="melting point" reading="130 °C (dec.)"
molecule="Cc1cc2c(s1)[C@@H](O)[C@H](O)C[C@]2(O)C(=O)O (hydrate or solvate)" recorded_metric="melting point" reading="92 to 95 °C"
molecule="O=C1C(O)C(O)CC(O)(C(=O)O)C1Cc1ccc2sccc2c1 (single isomer, unassigned)" recorded_metric="melting point" reading="152 to 155 °C"

###

RECORDED METRIC: melting point

compound="O=C1C(O)C(O)CC(O)(C(=O)O)C1Cc1c(F)c(F)c(F)c(F)c1F (single isomer, unassigned) (hydrate or solvate)" recorded_metric="melting point" reading="123 to 125 °C"
compound="O=C1[C@@H](O)[C@H](O)C[C@](O)(C(=O)O)[C@@H]1Cc1ccccc1 [(2S)-Ia-3, (2S)-2-benzyl-3-dehydroquinic acid]" recorded_metric="melting point" reading="131 to 134 °C"
compound=O=C(O)[C@@]1(O)C[C@@H](O)[C@H](O)c2sc(-c3ccccc3)cc21 recorded_metric="melting point" reading="168 to 173 °C"

###

This section presents molecules with their documented Ki values.
target: type II dehydroquinase from Streptomyces coelicolor (Streptomyces coelicolor, UniProt P15474); test: Inhibition of type II dehydroquinase from Streptomyces coelicolor (Ki); assay type: biochemical; details: read-out: affinities in the case of S. coelicolor
RECORDED METRIC: Ki

test_smiles=O=C(O)[C@]1(O)C=C(OCc2cc3ccccc3s2)[C@@H](O)[C@H](O)C1 recorded_metric=Ki reading="0.48 nM"
test_smiles=O=C(O)[C@@]1(O)C[C@@H](O)[C@H](O)c2sc(/C=C/C3CC3)cc21 recorded_metric=Ki reading="0.3 nM"

###

Where a name gives a salt, the structure may show the parent alone.
RECORDED METRIC: melting point

molecule=COC(=O)[C@@]1(O)C[C@@H](O)[C@H](O)c2sc(C)cc21 reading="87 to 92 °C"
molecule="Cc1ccc(CC2C(=O)C(O)C(O)CC2(O)C(=O)O)cc1 (single isomer, unassigned) (hydrate or solvate) [(2R)-Ia-4]" reading="105 to 108 °C"
molecule="O=C(O)[C@]1(O)C=C(OCc2ccc3ccccc3c2)[C@@H](O)[C@H](O)C1 (as salt: sodium) (hydrate or solvate)" reading="54 °C (dec.)"
molecule="Cc1ccc(CC2C(=O)C(O)C(O)CC2(O)C(=O)O)cc1 (single isomer, unassigned) [(2S)-Ia-4]" reading="134 to 138 °C"
molecule="C=CC[C@@H]1C(=O)[C@@H](O)[C@H](O)C[C@]1(O)C(=O)O (hydrate or solvate) [(2S)-Ia-1, (2S)-2-allyl-3-dehydroquinic acid]" reading="127 to 130 °C"
molecule="O=C([O-])[C@@]1(O)C[C@@H](O)[C@H](O)C(OCc2ccc3sccc3c2)=C1Cc1cccs1.[Na+] (hydrate or solvate)" reading="184 °C (dec.)"
molecule=C/C=C/c1cc2c(s1)[C@@H](OC(C)=O)[C@H](OC(C)=O)C[C@]2(OC(C)=O)C(=O)OC reading="140 to 143 °C"

Each recorded value in this set is attributed to patent US20110313032A1.
